# credit: the supplement of paper PMC12764529

TEST_DETAILS: folding stability dG unfold from trypsin proteolysis; higher = more stable
Field: class. Source value: folding stability dG unfold. Ranges: low: < 1 kcal/mol; medium: ≥ 1 kcal/mol and < 2 kcal/mol; high: ≥ 2 kcal/mol

Exam item: assign SAGGSAGGSAGGGSSMITLERESEPGETFEFNFPGVSEVTVTEVIPGDGKVTVKVEVTSPSAGGSAGGSAGG [r7_292_JUSTAS] to the correct category. low

Exam item: assign SAGGSAGGWFYIMFPIPPGYKVEAEWKFPNGPKVKSEIHPDGPIMITIPPGMANMPDFEIKIEPSAGGSAGG [r6_237_TrROS] to the correct category. high

Exam item: assign SAGGSAGGSAGKKKILLKFKSAEEALEAIKKGKTIKLKNGKTVKVKKVTLDKNGYLLIELSAGGSAGGSAGG [r11_48_TrROS_Hall] to the correct category. high

Exam item: assign SAGGSAGGSAGPALRIPFLVERPDGSPFWAEARVYEDGTVELRIYGDEPIATFTFPLDELSAGGSAGGSAGG [r11_327_TrMRF] to the correct category. medium

Exam item: assign SAGGDKDNKPPIPTKTITFMLPYDSPEDAKDYAEEIARELFQEEGIPIKVTVQYNPESGWVWVTITIYSAGG [r13_517_TrROS] to the correct category. high

Exam item: assign SPIRIRIWNPKNNVPIDEIDIQPNEDGNYGIKIKFWMPGKQHEHTIPIPPGETADEFINDHGIRSIEIEPSA [r9_492_TrROS] to the correct category. low

Exam item: assign SAGGSAGGSAGGKLKPGQKVLVIELKVTKVKTKKDGKKEFEFEITRIEIVEVPEGAKILSAGGSAGGSAGGS [r10_826_TrROS_Hall] to the correct category. medium

Exam item: assign SAGGSAGGSAGGSKKIIIPVGNKPIEITLHPDEIPEIHPETNYISIYLPKTNDVLILPVGSAGGSAGGSAGG [r7_7_TrMRF] to the correct category. low

Exam item: assign SAGGSAGGSETRVLVRPLDGAIVIEAYRRLPDGSWVLAERIVIPTKGDDPESIARAQEVIDKLSAGGSAGGS [r12_169_TrMRF] to the correct category. high

Exam item: assign SAGGMMTVRIVIEKDGKKITITAKVTKIEFDEETGKLTITFEDGSKKEIDLDKLKIKKIEVEPAPEEESAGG [r13_636_TrROS_Hall] to the correct category. medium

Exam item: assign SAGGSAGGSKYYRVRFKEEIEITLENGEKLKIKKGDVIVVPSKEDLDRLKALFPNLEVEVEPVSAGGSAGGS [r12_987_TrROS_Hall] to the correct category. high

Exam item: assign SAGGSDVEIEVFENAIIITIPLDLDNGKGETVEVRIIAPFTPDGRPIFRIEVINPDSDEVVTFTFPSAGGSA [r2_484_TrMRF] to the correct category. high

Exam item: assign SAGGSAGGSAGGVDPTPDGILRVRVVIKDPNGDVFSEKEVEMTPEELEALKKAGYVILESAGGSAGGSAGGS [r10_749_JUSTAS] to the correct category. medium

Exam item: assign GENVPPKTVTVSAPVDPTTGRVTVNPGNTTVSISLPDGADVTLSFSTSMSEEEQLAFVEKEAAALNAALAAS [r1_25_JUSTAS] to the correct category. medium

Exam item: assign SAGGSAGGAEELAEELERALPEGEVTEVRVEVVELPEGEPEVVVTVRVKRDGKEVKELPVIRVPSAGGSAGG [r6_630_TrROS_Hall] to the correct category. low

Exam item: assign SAGGTVTTEEVDDATYITVTKPSGETLTITAPALPDDTYLVTVYDPKTGKSTTKTVSSLDEAIKLLGSAGGS [r8_230_JUSTAS] to the correct category. high

Exam item: assign SAGGSAGPSSKPIPLYVLFLEVTKPGGEKLPLVKLVKSPEEALKIAEEIASKGYEVKLVLAPASEISAGGSA [r15_906_TrMRF] to the correct category. high

Exam item: assign SAGGSAGGKKKYRALITLRSKDGKPIAPIEIETDSPEELLKTAKKIIEEATKENEPVEIKVEEYSAGGSAGG [r6_285_TrMRF] to the correct category. medium

Exam item: assign SAGGSAGGSAGGPEIELLEDVKPGEFVVIKVKLKDADGNEVTATFVFYNGEWYLTKIEPSAGGSAGGSAGGS [r10_288_TrROS_Hall] to the correct category. high

Exam item: assign SAGGSAGGSAGMTLIYKDPETGKYYIVDFEESGPERVFEVDSLDEAEEIAEKLGRKLDPLSAGGSAGGSAGG [r11_1049_TrMRF] to the correct category. medium

Exam item: assign SAGGSAGGSAGKVTLVFKTKEDALNAIKELAEKEGLKVKIVKIEELPNGLIKITVEIEKPSAGGSAGGSAGG [r11_304_TrROS_Hall] to the correct category. high

Exam item: assign KLKFKVKIKNPKTNETVEVEVELNEDGTVTVKVNGKLIAKFKIVAKPKPKVETKKVKDANGNEKTYKKVKFS [r1_496_TrROS_Hall] to the correct category. medium

Exam item: assign SAGGSAGGMVEHVVTVPPSQVEEVIEEAKPKPVVEVKVEKVPGRDEVVVTMKYEIPEEELLKKLSAGGSAGG [r6_273_JUSTAS] to the correct category. low

Exam item: assign SAGGMVTLTYTDLVEEDPEVKAAKARELAEELREKGYTVTDATFDPEAGTLTITVSADDATLEEIAASAGGS [r8_344_TrMRF] to the correct category. medium

Exam item: assign SMKIKIYVAPPGYVVVRITGPNGFYIPIPAKDPDEAKAKLEELINNLQERNGHKPDIDVVPFPPGQEIGDSA [r9_786_TrROS] to the correct category. medium
